ASSAYED TARGET: T1, 4H310-AA
T1 chain: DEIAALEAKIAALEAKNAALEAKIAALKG
METHOD: two-hybrid library CCmax;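 note: natural log of median RNA to DNA barcode read ratio; higher means stronger binding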
EXPERIMENTAL CONTEXT: mean of both orientations
MEASURE NAME: interaction score

Input line: Would you kindly share the measured interaction score for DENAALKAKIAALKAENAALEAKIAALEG [4H1877-AA] ?
Output line: -0.467

[A] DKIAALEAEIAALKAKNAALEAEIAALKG [4H2162-AA]
[B] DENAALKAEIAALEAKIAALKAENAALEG [4H1579-AA]
[C] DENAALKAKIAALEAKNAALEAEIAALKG [4H1842-AA]
Input line: Rank by interaction score (largest to smallest). Please respond by ranking the labels in the order requested.
Output line: C, A, B
(C: 0.761, A: -0.523, B: -1.28)
